System: HEL cells
ASSAY_CONTEXT: anti-CMV table
MEASURED_QUANTITY: MTC (HEL)

[[record]]
compound = "CCCCCCCCCC[N+](C)(C)CCCNC(=O)C1NC(=O)C2NC(=O)C(NC(=O)C3NC(=O)C4NC(=O)C(Cc5ccc(c(Cl)c5)Oc5cc3cc(c5O)Oc3ccc(cc3Cl)C2O)NC(=O)C(N)c2ccc(O)c(c2)Oc2cc(O)cc4c2)c2ccc(O)c(c2)-c2c1cc(O)c(CN1CC[N+](C)(CCCCCCCCCC)CC1)c2O (stereo not drawn)"
observed_result = "≧5 μM"

[[record]]
compound = "NC1C(=O)NC2Cc3ccc(c(Cl)c3)Oc3cc4cc(c3O)Oc3ccc(cc3Cl)C(O)C3NC(=O)C(NC(=O)C4NC(=O)C(NC2=O)c2cc(O)cc(c2)Oc2cc1ccc2O)c1ccc(O)c(c1)-c1c(O)cc(O)cc1C(C(=O)N1CCN(Cc2ccc4ccccc4c2)CC1)NC3=O (stereo not drawn)"
observed_result = "20 to 200 µM"

